system: CSNK1D; conditions: concentration: 1 μM,replicates: in singlicate; n = 1;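 also: KINOMEscan kinase panel screen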
parameter: %Inh (%)
Quick reminder: number only, in %, skip the unit.

Known results for compounds:
compound: CCN(CC)CCOc1ccc(Nc2ncc3cc(-c4c(Cl)cccc4Cl)c(=O)n(C)c3n2)cc1
tested_on: CSNK1D
parameter: %Inh
readout_unit: %
reading: 39

compound: CN(C)CC(O)COc1ccc(Nc2nccc(-c3cnn4nc(N5CCOCC5)ccc34)n2)cc1 (stereo not shown)
tested_on: CSNK1D
parameter: %Inh
readout_unit: %
reading: 41

compound: Cc1ccc2c(-c3ccncc3)c(-c3ccc(F)cc3)nn2c1.Cl
tested_on: CSNK1D
parameter: %Inh
readout_unit: %
reading: 96.9

Incoming: Input Cl.Cl.Nc1nc(-c2ccc3c(N)n[nH]c3c2)cc(N2CCCC(NC(=O)c3ccccc3)C2)n1 (stereo not shown) , output reported %Inh.
Outgoing: 0

Incoming: Input Cl.Cl.NC[C@H](CC1CCCCC1)NC(=O)c1cc(Br)c(-c2ccnc3[nH]ccc23)s1 , output reported %Inh.
Outgoing: 86

====

%Inh overview
test system: PAK7; settings: concentration: 1 μM,replicates: in singlicate; n = 1
Quick reminder: number only, in %, skip the unit.

Incoming: Input CC(C)Nc1cc(-c2ccc3c(N)n[nH]c3c2)nc(N)n1 , output reported %Inh.
Outgoing: 0

Incoming: Input COc1ccc(C[C@@H](CN)NC(=O)c2cc(Br)c(-c3ccnc4[nH]ccc34)s2)cc1.Cl.Cl , output reported %Inh.
Outgoing: 98.7

Incoming: Input CCN(CC)CCCCNc1ncc2cc(-c3c(Cl)cccc3Cl)c(NC(=O)NC(C)(C)C)nc2n1 , output reported %Inh.
Outgoing: 16

Incoming: Input O=C(NCCNc1ccnc(NCc2ccc(F)cc2)n1)c1cc2ccccc2s1 , output reported %Inh.
Outgoing: 0

====

tested on: PRKCD; conditions: concentration: 1 μM,replicates: in singlicate; n = 1
%Inh overview
Quick reminder: number only, in %, skip the unit.

Known results for molecules:
molecule: Cl.Cl.NC[C@H](Cc1ccc(C(F)(F)F)cc1)NC(=O)c1cc(Br)c(-c2ccnc3[nH]ccc23)s1
readout_unit: %
reading: 97.3
//
molecule: C[C@H]1Oc2cc(cnc2N)-c2c(nn(C)c2C#N)CN(C)C(=O)c2ccc(F)cc21
readout_unit: %
reading: 15
//
molecule: Cc1n[nH]c2ccc(-c3cc(OC[C@@H](N)Cc4ccccc4)cnc3-c3ccoc3)cc12.O=C(O)C(F)(F)F.O=C(O)C(F)(F)F
readout_unit: %
reading: 99.8
//
molecule: Cl.Cl.Nc1nc(-c2ccc3c(N)n[nH]c3c2)cc(N2CCCC(NC(=O)c3ccccc3)C2)n1 (centres unmarked)
readout_unit: %
reading: 0
//
molecule: Cl.Cl.NC[C@H](CC1CCCCC1)NC(=O)c1cc(Br)c(-c2ccnc3[nH]ccc23)s1
readout_unit: %
reading: 99.5
//
molecule: CNC(=O)c1ccccc1Sc1ccc2c(/C=C/c3ccccn3)n[nH]c2c1
readout_unit: %
reading: 4

Incoming: Input CN(C)CC(O)COc1ccc(Nc2nccc(-c3cnn4nc(N5CCOCC5)ccc34)n2)cc1 (centres unmarked) , output reported %Inh.
Outgoing: 14

Incoming: Input C[C@@H]1CCN(C(=O)CC#N)C[C@@H]1N(C)c1ncnc2[nH]ccc12 , output reported %Inh.
Outgoing: 18
